melting point by entry:
PROPERTY LABEL: melting point

1) O=C(CCc1cccnc1)NCCCCCC1CCN(C(c2ccccc2)c2ccccc2)CC1 [compound 101] : 112 to 114 °C
2) O=C(COc1cccnc1)NCCCCC1CCN(C(c2ccccc2)c2ccccc2)CC1 [compound 84] : 103 to 105 °C
3) O=C(CCc1cccnc1)NCCCCC1CCN(C2c3ccccc3COc3ccccc32)CC1 (centres unmarked) [compound 142] : 110 to 112 °C
4) O=C(CCc1cccnc1)NCCCCC1CCN(C(=O)c2ccccc2)CC1 [compound 162] : 72 to 74 °C
5) CCN(CCCCC1CCN(C(c2ccccc2)c2ccccc2)CC1)C(=O)CCc1cccnc1 [compound 68] : 72 to 74 °C
